Entry source: the supplement of paper PMC10567573

protein stability index overview
B1: P2RY14 (parent)
chain: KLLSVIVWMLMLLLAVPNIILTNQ

Variants of: B1
test_method_notes: protein stability index of a GFP-peptide fusion (GPS, HEK-293T) (PSI 1-6); higher = more stable;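 note: lentivirally expressed fusions sorted by FACS into six bins by GFP to DsRed ratio, PSI derived from sequencing read proportions per bin multiplied by bin number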
test_settings: c terminus: a fixed tail appended
property_name: protein stability index

mutation_notation: I20E
result: 3.69
//
mutation_notation: V7Y
result: 3.99
//
mutation_notation: I19M
result: 1.29
//
mutation_notation: W8M
result: 3.83
//
mutation_notation: V16H
result: 2.06
//
mutation_notation: I6S
result: 2.39
//
mutation_notation: Q24L
result: 3.08
//
mutation_notation: V5T
result: 3.51
//
mutation_notation: I6V
result: 4.09
//
mutation_notation: N23C
result: 2.15
//
mutation_notation: P17W
result: 1.98
